System: U2OS
Assay: Incucyte cell viability with U2OS; note: unitless GR value; below 1 slowed growth and below 0 cell loss
Format: toxicity, cell-based
Conditions: human, 12 h, 10 µM, compound concentration 10 uM, replicate number 2, timepoint 12 hours
Threshold check on Growth Rate: at or above 0.7 gives fulfilled, strictly below gives not fulfilled.

Below are worked cases with known answers.
compound: CNC(=O)[C@H]1O[C@@H](n2cnc3c(NCc4cccc(I)c4)ncnc32)[C@H](O)[C@@H]1O
assay-system: U2OS
assigned-class: fulfilled

compound: CC(C)(C)c1cc(NC(=O)Nc2ccc(-c3cn4c(n3)sc3cc(OCCN5CCOCC5)ccc34)cc2)no1
assay-system: U2OS
assigned-class: not fulfilled

compound: CO[C@H]1CC[C@@H](C(=O)c2ccc3nc4c(cc3c2)CCCO4)CC1
assay-system: U2OS
assigned-class: not fulfilled

compound: Cc1cc(OCCCS(C)(=O)=O)cc(C)c1-c1cccc(COc2ccc3c(c2)OC[C@H]3CC(=O)O)c1
assay-system: U2OS
assigned-class: fulfilled

compound: NC(=O)c1cc2c(-c3ccc(C(=O)NCc4ccnc(Cl)c4)s3)cccc2s1
assay-system: U2OS
assigned-class: not fulfilled

Inquiry: Answer whether Growth Rate of CCCN1CCC[C@@H]2Cc3n[nH]cc3C[C@H]21.Cl [QUINPIROLE HYDROCHLORIDE] is greater than or equal to 0.7.
Reply text: not fulfilled

Inquiry: Could you please find out whether CCC(=O)OCC(=O)[C@@]1(OC(=O)CC)[C@@H](C)C[C@H]2[C@@H]3CCC4=CC(=O)C=C[C@]4(C)[C@@]3(Cl)[C@@H](O)C[C@@]21C [BECLOMETHASONE DIPROPIONATE] has Growth Rate that meets 0.7 or exceeds it?
Reply text: fulfilled

Inquiry: Does Growth Rate meet or surpass 0.7 for CSCC[C@H](NC(=O)[C@H](CC(C)C)NC(=O)CNC(=O)[C@H](Cc1ccccc1)N(C)C(=O)[C@H](Cc1ccccc1)NC(=O)[C@H](CC(=O)O)NC(=O)CCC(=O)O)C(N)=O [SENKTIDE] ?
Reply text: fulfilled

Inquiry: Assess whether reported Growth Rate for "O=C(O)CCn1c2c(c3ccccc31)C[C@H](NS(=O)(=O)c1ccc(F)cc1)CC2" sits at 0.7 or higher.
Reply text: fulfilled

Inquiry: I'd appreciate it if you could say whether "CCCN[C@H]1CCc2nc(N)sc2C1.Cl.Cl" has Growth Rate at least equal to 0.7.
Reply text: fulfilled

Inquiry: Is Growth Rate at least 0.7? Consider "Cl.O=C(O)c1cc(-c2ccc(C3CCNCC3)cc2)c2ccc(-c3ccc(C(F)(F)F)cc3)cc2c1"
Reply text: not fulfilled

Inquiry: # check: Growth Rate of "COC[C@@H](CC(C)C)NC1=N/C(=C\c2ccc3ncsc3c2)C(=O)N1C" is greater than or equal to 0.7
Reply text: not fulfilled

Inquiry: Hello, I need to know if "CC1=C(C)C(=O)C(C(C)(C)CC(=O)N(CCCCSC[C@H]2O[C@@H](n3cnc4c(N)ncnc43)[C@H](O)[C@@H]2O)Cc2cccc(-c3ccc(Cl)cc3)c2)=C(C)C1=O" has measured Growth Rate not below 0.7. Thanks!
Reply text: fulfilled

Inquiry: Does the reported Growth Rate for "COc1cc(C(=O)N(CCCc2ccccc2)Cc2ccc(CC(=O)O)cc2)cc(OC)c1C" fall at or above the 0.7 mark?
Reply text: fulfilled

Inquiry: Check if Growth Rate >= 0.7 (inclusive). Item: "CN(C)CCn1cc(S(=O)(=O)c2cccc(F)c2)c2cccnc21.Cl.Cl"
Reply text: fulfilled

Inquiry: Form field: Growth Rate at least 0.7? Entry: "CCCCC/C=C\C/C=C\C/C=C\C/C=C\CCCC(=O)OC(CO)CO"
Reply text: fulfilled

Inquiry: # check: Growth Rate of "Cc1ccc(/C(=C\CN2CCCC2)c2ccccn2)cc1" is greater than or equal to 0.7
Reply text: fulfilled

Inquiry: Say whether "Cc1cc(-c2ccc3c(c2)CC[C@H]3N2CC3(CCN(C(=O)Cc4cn5cc(C)sc5n4)CC3)C2)ncn1" shows Growth Rate of 0.7 or more.
Reply text: fulfilled

Inquiry: Is Growth Rate at least 0.7? Consider "Nc1nc(-c2ccco2)c2cnn(Cc3ccccc3F)c2n1"
Reply text: not fulfilled

Inquiry: Dear colleague, could you confirm whether "O=C(Nc1cc(C(F)(F)F)ccc1N1CCCCC1)c1ccncc1" has Growth Rate at or above 0.7?
Reply text: fulfilled

Inquiry: Hi, just wondering whether "COc1cccc2c1c(NS(=O)(=O)c1ccc(Cl)s1)nn2Cc1cccc(CNC(=O)C(C)(C)O)c1" shows Growth Rate of 0.7 or higher.
Reply text: fulfilled

Inquiry: Dear colleague, could you confirm whether CN(C)C/C=C/C(=O)Nc1ccc(C(=O)N2CCCC(Nc3ncc(Cl)c(-c4c[nH]c5ccccc45)n3)C2)cc1 (configuration not stated) has Growth Rate at or above 0.7?
Reply text: not fulfilled
